assay-explanation: Clearance in dog at 5 mg/kg, po and 1 mg/kg, iv
Assay type: ADME, organism-based, Canis lupus familiaris
measurement-parameters: in vivo
result-type: clearance (mL/min/kg)
Respond numerically; units are mL/min/kg and should not be typed.

// query Reported clearance for Cc1ncnc(C)c1C(=O)N1C[C@H]2CN(CCC(c3cccc(F)c3)C3CCN(S(C)(=O)=O)CC3)C[C@H]2C1 (stereo in doubt; 43) : what is it?
// result 31

----------
assay-explanation: Metabolic stability in rat liver microsomes assessed as intrinsic clearance
Assay type: ADME, Microsome
result-type: microsomal CLint (µL/min/mg)
Provide only the numeric value, understood in µL/min/mg.

// query Given Cc1ncnc(C)c1C(=O)N1C[C@H]2CN(CCC(c3cccc(F)c3)C3CCN(S(C)(=O)=O)CC3)C[C@H]2C1 (stereo in doubt; 43) , state its recorded microsomal CLint.
// result 40

----------
assay-explanation: Oral bioavailability in rat at 10 mg/kg, po and 1 mg/kg, iv
Type: ADME, organism-based
measurement-parameters: in vivo
result-type: bioavailability (%)
# number only, unit % dropped from output

// query bioavailability value for entry Cc1ncnc(C)c1C(=O)N1C[C@H]2CN(CCC(c3cccc(F)c3)C3CCN(S(C)(=O)=O)CC3)C[C@H]2C1 (stereo in doubt; 43)
// result 6.6

----------
System: Rattus norvegicus
assay-explanation: Clearance in rat at 10 mg/kg, po and 1 mg/kg, iv
Type: ADME, organism-based
measurement-parameters: in vivo
result-type: clearance (mL/min/kg)
Express the result in mL/min/kg but write the number alone.

// query Return clearance measured with Rattus norvegicus given this compound: Cc1ncnc(C)c1C(=O)N1C[C@H]2CN(CCC(c3cccc(F)c3)C3CCN(S(C)(=O)=O)CC3)C[C@H]2C1 (stereo in doubt; 43)
// result 40

----------
assay-explanation: Metabolic stability in human liver microsomes assessed as intrinsic clearance
Type: ADME, Microsome
result-type: microsomal CLint (µL/min/mg)
Kindly answer with a numeric value in µL/min/mg, unit omitted.

// query Any idea what microsomal CLint was measured for Cc1ncnc(C)c1C(=O)N1C[C@H]2CN(CCC(c3cccc(F)c3)C3CCN(S(C)(=O)=O)CC3)C[C@H]2C1 (stereo in doubt; 43) ?
// result 60

----------
assay-explanation: Apparent permeability of the compound from apical to basolateral side in human Caco-2 cell membrane after 21 days
measurement-parameters: Caco-2, Papp
Exercise: state measured Papp A→B for each of the compounds provided.
Just the number please, in ×10⁻⁶ cm/s, no unit attached.

// query So what's the measured Papp A→B for this one? Cc1ncnc(C)c1C(=O)N1C[C@H]2CN(CCC(c3ccccc3)C3CN(S(=O)(=O)C4CCCC4)C3)C[C@H]2C1 (stereo partly drawn)
// result 1.4

// query Likewise for Cc1ncnc(C)c1C(=O)N1C[C@H]2CN(CCC(c3cccc(F)c3)C3CCN(S(C)(=O)=O)CC3)C[C@H]2C1 (stereo in doubt; 43) ?
// result 0.5

// query Item: Cc1ncnc(C)c1C(=O)N1C[C@H]2CN(CCC(c3ccccc3)C3CCN(S(C)(=O)=O)CC3)C[C@H]2C1 (stereo in doubt; 34)
// result 0.87

----------
Exercise: state measured pIC50 for each of the compounds provided.
tgt: C-C chemokine receptor type 5 (Homo sapiens, UniProt P51681)
Sequence (P51681 whole entry): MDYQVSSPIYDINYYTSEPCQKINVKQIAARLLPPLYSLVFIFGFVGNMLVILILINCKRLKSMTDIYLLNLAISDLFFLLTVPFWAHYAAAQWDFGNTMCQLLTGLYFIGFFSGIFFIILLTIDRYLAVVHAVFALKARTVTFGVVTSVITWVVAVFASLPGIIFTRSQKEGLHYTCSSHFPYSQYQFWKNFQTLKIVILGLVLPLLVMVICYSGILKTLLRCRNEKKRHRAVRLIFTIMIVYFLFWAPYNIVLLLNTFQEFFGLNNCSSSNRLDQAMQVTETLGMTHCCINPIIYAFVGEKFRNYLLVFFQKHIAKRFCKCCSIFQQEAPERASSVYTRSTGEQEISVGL
Kindly note that pIC50 refers to -log10 of the concentration in mol/L and answer with the value alone.

// query Using the record for Cc1ncnc(C)c1C(=O)N1C[C@H]2CN(CCC(c3cc(F)cc(F)c3)C3CCN(CC(F)F)CC3)C[C@H]2C1 (stereo not given in full) , report its pIC50.
// result 7.60

// query Query Cc1ncnc(C)c1C(=O)N1C[C@H]2CN(CCC(c3cc(F)cc(F)c3)C3CN(S(=O)(=O)C4CC4)C3)C[C@H]2C1 (stereo not given in full) next
// result 7.46

// query How about Cc1ncnc(C)c1C(=O)N1C[C@H]2CN(CCC(c3ccccc3)C3CCN(S(=O)(=O)C(C)C)CC3)C[C@H]2C1 (stereo not given in full) ?
// result 7.33

// query Could you do the same for Cc1ncnc(C)c1C(=O)N1C[C@H]2CN(CCC(c3ccccc3)C3CCN(CC(F)(F)F)CC3)C[C@H]2C1 (stereo not given in full) , please?
// result 7.77

----------
assay-explanation: Metabolic stability in dog liver microsomes assessed as intrinsic clearance
Assay type: ADME, Canis lupus familiaris, Microsome
result-type: clearance (µL/min/mg)
Give the number; µL/min/mg is assumed, so skip it.

// query Query (compound): Cc1ncnc(C)c1C(=O)N1C[C@H]2CN(CCC(c3cccc(F)c3)C3CCN(S(C)(=O)=O)CC3)C[C@H]2C1 (stereo in doubt; 43) ; field requested: clearance
// result 18

----------
Would you kindly list IC50 for each of these compounds?
tgt: C-C chemokine receptor type 5 (Homo sapiens)
Record the value in nM, omitting the unit from your answer.

// query I am curious: what IC50 value has been reported for Cc1ncnc(C)c1C(=O)N1C[C@H]2CN(CCC(c3ccccc3)C3CN(S(=O)(=O)C(C)C)C3)C[C@H]2C1 (some centres undefined) ?
// result 23

// query And the next one, Cc1ncnc(C)c1C(=O)N1C[C@H]2CN(CCC(c3ccccc3)C3CCN(S(=O)(=O)C4CC4)CC3)C[C@H]2C1 (some centres undefined) ?
// result 27

// query Same thing, different compound: Cc1ncnc(C)c1C(=O)N1C[C@H]2CN(CCC(c3ccccc3)C3CCN(S(C)(=O)=O)CC3)C[C@H]2C1 (stereo in doubt; 41)
// result 25

// query How about this compound: Cc1ncnc(C)c1C(=O)N1C[C@H]2CN(CCC(c3ccccc3)C3CN(S(C)(=O)=O)C3)C[C@H]2C1 (some centres undefined)
// result 52

----------
assay-explanation: Cmax in dog at 5 mg/kg, po and 1 mg/kg, iv
Format: ADME, organism-based, Canis lupus familiaris
measurement-parameters: in vivo
result-type: Cmax (ng/mL)
Just the number in ng/mL, nothing appended.

// query Given Cc1ncnc(C)c1C(=O)N1C[C@H]2CN(CCC(c3cccc(F)c3)C3CCN(S(C)(=O)=O)CC3)C[C@H]2C1 (stereo in doubt; 43) , state its recorded Cmax.
// result 1300

----------
assay-explanation: Oral bioavailability in dog at 5 mg/kg, po and 1 mg/kg, iv
Assay type: ADME, organism-based, Canis lupus familiaris
measurement-parameters: in vivo
result-type: bioavailability

// query Dear colleague, I am looking for the recorded bioavailability of the following compound: Cc1ncnc(C)c1C(=O)N1C[C@H]2CN(CCC(c3cccc(F)c3)C3CCN(S(C)(=O)=O)CC3)C[C@H]2C1 (stereo in doubt; 43)
// result 96%

----------
assay-explanation: Cmax in rat at 10 mg/kg, po and 1 mg/kg, iv
Format: ADME, organism-based
measurement-parameters: in vivo
result-type: Cmax
Quick note: number first, unit second.

// query Data request, read-out Cmax, for Cc1ncnc(C)c1C(=O)N1C[C@H]2CN(CCC(c3cccc(F)c3)C3CCN(S(C)(=O)=O)CC3)C[C@H]2C1 (stereo in doubt; 43)
// result 110 ng/mL
